- assay_target: T1, Human syndecan-1 (CD138) on the cell surface (human, UniProt P18827 23-310)
- T1 construct: Endogenous on H929, KMS-11 and RT112/84 cells or transfected into Expi293 cells; also called human CD138; hCD138
- T1 sequence: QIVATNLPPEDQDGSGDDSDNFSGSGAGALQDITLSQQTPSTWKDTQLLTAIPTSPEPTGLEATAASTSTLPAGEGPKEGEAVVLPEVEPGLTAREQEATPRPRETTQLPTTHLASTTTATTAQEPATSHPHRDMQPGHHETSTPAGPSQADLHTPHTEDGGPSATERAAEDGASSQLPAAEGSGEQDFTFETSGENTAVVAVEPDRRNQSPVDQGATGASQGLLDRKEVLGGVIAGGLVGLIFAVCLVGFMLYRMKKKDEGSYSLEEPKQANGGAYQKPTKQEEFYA
- procedure_details: FACS on KMS-11 cells, four parameter fit
Reported pEC50 values for the following binders.
Keep in mind that pEC50 stands for -log10 of concentration in molar terms.

F6 f1ka-rep (antibody, V domains shown, Humanized F12P16F6 expressed as whole antibody with human constant regions (kappa light chain)) VH: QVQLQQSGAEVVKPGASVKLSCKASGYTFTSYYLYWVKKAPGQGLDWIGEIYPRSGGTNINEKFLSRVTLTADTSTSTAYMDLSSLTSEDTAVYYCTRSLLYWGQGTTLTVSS VL: DVVMTQTPLSLSVTPGQPASISCKSSQSLLASDGKTYLNWLLQRPGQSPKRLIYLVSKLDSGVPNRFSGSGSGTDFTLQISRVEAEDVGLYYCMQGAHFPFTFGGGTKVEIKR    9.08

Pending binder:
Data request, read-out pEC50, for F6 cka-rep (antibody, V domains shown, Humanized F12P16F6 expressed as whole antibody with human constant regions (kappa light chain)) VH: QVQLVQSGAEVVKPGASVKLSCKASGYTFTSYYLYWVKKAPGQGLDWIGEIYPRSGGTNINEKFLSRVTLTADTSTSTAYLELSSLTSEDTAVYYCTRSLLYWGQGTTLTVSS VL: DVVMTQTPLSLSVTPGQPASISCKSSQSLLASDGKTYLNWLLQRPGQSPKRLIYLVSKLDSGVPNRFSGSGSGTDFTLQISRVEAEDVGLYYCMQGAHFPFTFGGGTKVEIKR
8.89
